Protein target, amino acids: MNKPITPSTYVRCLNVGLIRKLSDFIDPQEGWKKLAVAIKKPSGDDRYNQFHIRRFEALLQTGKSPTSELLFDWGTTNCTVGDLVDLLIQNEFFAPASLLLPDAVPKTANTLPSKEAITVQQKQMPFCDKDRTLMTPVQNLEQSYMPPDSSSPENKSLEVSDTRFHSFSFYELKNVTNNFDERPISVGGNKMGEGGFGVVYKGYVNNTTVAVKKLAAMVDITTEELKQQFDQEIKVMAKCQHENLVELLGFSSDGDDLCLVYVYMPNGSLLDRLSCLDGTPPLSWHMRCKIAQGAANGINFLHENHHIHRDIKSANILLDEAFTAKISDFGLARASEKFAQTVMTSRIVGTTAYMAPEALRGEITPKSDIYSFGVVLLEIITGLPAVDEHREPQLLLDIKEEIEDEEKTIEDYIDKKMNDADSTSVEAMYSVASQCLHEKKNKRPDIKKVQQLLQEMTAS
pIC50: −log10 of the molar value.
property.name: pIC50

Answered cases to consult:
COc1cc2nn([C@H]3CC[C@H](CN(C)C4CCN(C5CCN(C(=O)c6ccc(Cl)c(N7CCC(=O)NC7=O)c6)CC5)CC4)CC3)cc2cc1NC(=O)c1cccc(C(F)(F)F)n1    8.80
CC(C)(O)c1cc2nn(C3CCN(CCCC4CCN(C(=O)c5ccc(Cl)c(N6CCC(=O)NC6=O)c5)CC4)CC3)cc2cc1NC(=O)c1cccc(C(F)(F)F)n1    8.07
COc1cc2nn(C3CCN(CCC4CC5(CCN(C(=O)c6ccc(Cl)c(N7CCC(=O)NC7=O)c6)CC5)C4)CC3)cc2cc1NC(=O)c1cccc(C(F)(F)F)n1    7.62

1: COc1cc2nn(C3CCN(CC4CCC5(CC4)CCN(C(=O)c4ccc(Cl)c(N6CCC(=O)NC6=O)c4)CC5)CC3)cc2cc1NC(=O)c1cccc(C(F)(F)F)n1
2: CC(C)(O)c1cc2nn(C3CCN(CC4CC5(CCN(C(=O)c6ccc(Cl)c(N7CCC(=O)NC7=O)c6)CC5)C4)CC3)cc2cc1NC(=O)c1cccc(C(F)(F)F)n1
Dear colleague, could you let me know whether 1 or 2 has the lower recorded pIC50? Thanks. Bench note: the answer is the label of the chosen record.
1
(1: 7.55, 2: 7.93)
